The reported numbers originate from the supplement of paper PMC12667976.

B1: library; numbered along this chain (parent)
chain: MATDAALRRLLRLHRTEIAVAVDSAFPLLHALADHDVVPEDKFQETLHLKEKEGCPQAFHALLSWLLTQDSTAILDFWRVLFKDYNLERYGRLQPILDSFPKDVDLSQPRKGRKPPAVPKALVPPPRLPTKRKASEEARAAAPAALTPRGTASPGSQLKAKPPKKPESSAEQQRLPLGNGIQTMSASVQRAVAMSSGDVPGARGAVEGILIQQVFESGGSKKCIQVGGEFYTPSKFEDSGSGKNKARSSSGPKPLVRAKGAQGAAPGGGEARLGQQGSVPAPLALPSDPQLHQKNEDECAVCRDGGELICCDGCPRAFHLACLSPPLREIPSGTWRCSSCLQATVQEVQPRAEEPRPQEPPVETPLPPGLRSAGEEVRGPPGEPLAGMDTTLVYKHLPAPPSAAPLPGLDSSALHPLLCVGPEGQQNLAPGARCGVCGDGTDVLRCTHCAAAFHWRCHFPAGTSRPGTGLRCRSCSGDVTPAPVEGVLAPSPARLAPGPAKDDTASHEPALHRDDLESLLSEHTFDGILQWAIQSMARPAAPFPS

# Variants of: B1
# protocol_description: AIRE transcriptional activation functional score (insulin promoter-GFP; nonsense median 0, synonymous median 1) (normalised score); higher = higher AIRE activity (more reporter activation)
# experimental_setup: with insulin promoter-GFP reporter in HEK293
Lab note: compare AIRE transcriptional activation functional score against 0.9. Equal or greater, write 1 (yes). Smaller, write 0 (no).

>>> cat("P542V")
"1 (yes)"
>>> cat("L444F")
"0 (no)"
>>> cat("P398C")
"0 (no)"
>>> cat("D103G")
"1 (yes)"
>>> cat("V420I")
"0 (no)"

Asked: Check if AIRE transcriptional activation functional score >= 0.9 (inclusive). Item: `D478T`
Given back: 0 (no)

Asked: Check if AIRE transcriptional activation functional score >= 0.9 (inclusive). Item: `P325C`
Given back: 1 (yes)

Asked: Check if AIRE transcriptional activation functional score >= 0.9 (inclusive). Item: `T364F`
Given back: 0 (no)

Asked: Check if AIRE transcriptional activation functional score >= 0.9 (inclusive). Item: `S107A`
Given back: 1 (yes)

Asked: Check if AIRE transcriptional activation functional score >= 0.9 (inclusive). Item: `Q349E`
Given back: 1 (yes)

Asked: Check if AIRE transcriptional activation functional score >= 0.9 (inclusive). Item: `N179H`
Given back: 1 (yes)

Asked: Check if AIRE transcriptional activation functional score >= 0.9 (inclusive). Item: `K501Q`
Given back: 1 (yes)

Asked: Check if AIRE transcriptional activation functional score >= 0.9 (inclusive). Item: `V118N`
Given back: 0 (no)

Asked: Check if AIRE transcriptional activation functional score >= 0.9 (inclusive). Item: `A432E`
Given back: 1 (yes)
